Test: protein stability index of a GFP-peptide fusion (yeast GPS) (PSI 1-4); higher = more stable; sorted into four equal gates, so the index is relative within each strain
Settings: san1∆
Below, each of the sequences is paired with its reported protein stability index value.
Give a plain numeric answer without units written out.

Sample records with protein stability index:
[
  {
    "sequenceRecord": "DTNNEADLMALENATWT [SNF12]",
    "protein stability index": 2.64
  },
  {
    "sequenceRecord": "LLSENRSEKSTTNAQTK [SRP54]",
    "protein stability index": 2.88
  },
  {
    "sequenceRecord": "ASSLRFGNSLSNTVNAN [YDL088C/ASM4]",
    "protein stability index": 2.65
  },
  {
    "sequenceRecord": "RLENKLSEIESLDEILL [SRP68]",
    "protein stability index": 2.92
  },
  {
    "sequenceRecord": "GEIEIKPNEEEELGFWD [RPN13]",
    "protein stability index": 3.25
  },
  {
    "sequenceRecord": "NLKQANNVAYGKKRFRV [SMC4]",
    "protein stability index": 2.09
  },
  {
    "sequenceRecord": "EKFSPKSFISKLLGIGD [SRP54]",
    "protein stability index": 2.68
  },
  {
    "sequenceRecord": "FGHLKLALPVFHIGYFK [RPO31]",
    "protein stability index": 1.24
  }
]

Record summary for GNAVTVTEDGTVVTVVS [RPL22A] : reported protein stability index = 1.45

get_value(item= NMFELAQQLVGVYKRDN [SMC4] , readout=protein stability index) returns 1.61

So, VTFIFGELKRGNESVKP [MED11] ? Its protein stability index was 2.97

Entry ITRSVMRFNIEIIADWI [BRR2] ; protein stability index = 2.57

Memo: LAANYLNIKPLLDAGCK [SKP1] , reported protein stability index: 1.57

Briefly, protein stability index measured for DSLTRAVKDQQKYTKEM [SNF2] : 1.25

* * *

Assay: protein stability index of a GFP-peptide fusion (yeast GPS) (PSI 1-4); higher = more stable; sorted into four equal gates, so the index is relative within each strain
Conditions: pdr5∆
Recorded protein stability index by entry
// keep it numeric: no unit symbol after the value

Worked cases, answers included:
[
  {
    "sequenceRecord": "EFFHLQHYLDTATAPRL [QCR6]",
    "protein stability index": 3.03
  },
  {
    "sequenceRecord": "MDQDNNNHNDSNRLHPP [GRR1]",
    "protein stability index": 2.79
  },
  {
    "sequenceRecord": "SDDQQEAVELVIGLDSE [YML103C/NUP188]",
    "protein stability index": 3.54
  },
  {
    "sequenceRecord": "DKLLKRLKEKGSRVLIF [ISW2]",
    "protein stability index": 1.61
  }
]

protein stability index reported for this sequence TSTGTTIVGVKFNNGVV [PUP1] : 3.14

Entry ELFDILSTSEDVSIEEL [IRR1] ; protein stability index = 2.15

GET /value?item= AGTEANAVSFDTTFSDF [SRB4] &field=protein stability index returns 3.06

* * *

# reported protein stability index; entries follow
Experiment: protein stability index of a GFP-peptide fusion (yeast GPS) (PSI 1-4); higher = more stable; sorted into four equal gates, so the index is relative within each strain
Settings: doa10∆
Provide a numeric answer; units are not to be included.

# count of solved cases: 2
[
  {
    "sequenceRecord": "LRNKLIESNKLAGVLYE [RRP6]",
    "protein stability index": 2.72
  },
  {
    "sequenceRecord": "SAKQTAPNNSNGGSEEE [MED7]",
    "protein stability index": 3.45
  }
]

Form field protein stability index, entry PNFNVEIMQQKFPATNV [ECM29] : 2.25

So for LQYIIHDTLNNEIANSI [BRR2] , the logged protein stability index turned out to be 2.67

Lookup result for FGINTNTTKTADTKAPT [YLR335W/NUP2] ; measured protein stability index: 3.4

get_value(item= SSVEMLLDVVKGTEASN [YDL116W/NUP84] , readout=protein stability index) returns 2.89

Looking up KKSEEKLREKVNDVELA [MTW1] , I found its protein stability index recorded as 3.08

The reported value for PSDVNIDVMKSQIIPLM [SNU114] in terms of protein stability index is 2.15

Lookup result for EAMYKLQLASLQQKQRD [SMC3] ; measured protein stability index: 2.71

Form: sequence = LAELINMTTIADRNDDD [SRB6] ; protein stability index = 2.73

Notebook: SWNESEDTLSGYDPIVS [PRP28] , protein stability index read as 3.04

The sequence EGDFLKSIIGKLTAERA [POP1] showed protein stability index equal to 1.63

Short answer for FQLPTTCVSMAPIQLKI [RGR1] : protein stability index was 1.3
